Assay: Activation of Wnt/beta-catenin signaling pathway in HEK293T cells in presence of Wnt3a-conditioned medium incubated for 6 hrs by luciferase reporter gene assay
Type: cell-based
Settings: Homo sapiens; HEK-293T
Calls of active or inactive are those of the source. The rule behind the calls is not given here.
PARAMETER: CD

Check out these entries, answers already filled in.
Please give the measured CD for this molecule: C=Cc1cccc2c1N(C)Cc1cc(OCC)c(OCC)cc1-2
inactive

What does the data say about its CD? Entry: CCc1cccc2c1N(C)Cc1cc(OCc3cc4cc(Cl)ccc4s3)c(OCc3cc4cc(Cl)ccc4s3)cc1-2
inactive

Consider the molecule shown here: C=Cc1cccc2c1N(C)Cc1cc(O)c(O)cc1-2 What is its recorded CD?
10 µM

Reported CD, molecule CCc1cccc2c1N(C)Cc1cc(OCc3cn(CCN)nn3)c(OCc3cn(CCN)nn3)cc1-2 : ____
1.25 µM

// query CD value for entry CCc1cccc2c1N(C)Cc1cc(OCc3ccc(-c4ccccc4C(=O)OC)cc3)c(OCc3ccc(-c4ccccc4C(=O)OC)cc3)cc1-2
inactive

Can you share its CD? I mean this molecule: CCc1cccc2c1N(C)Cc1cc(OCc3cc(OC)cc(OC)c3)c(OCc3cc(OC)cc(OC)c3)cc1-2
inactive

Dear colleague, I am looking for the recorded CD of the following molecule: CCc1cccc2c1N(C)Cc1cc(OCc3ccc(-n4cccn4)cn3)c(OCc3ccc(-n4cccn4)cn3)cc1-2
inactive

Please look up its CD: CCc1cccc2c1N(C)Cc1cc(OCc3cc(C)nn3C)c(OCc3cc(C)nn3C)cc1-2
inactive

New cases:
Which measured CD value corresponds to CCc1cccc2c1N(C)Cc1cc(OCc3cn(CCNC(C)=O)nn3)c(OCc3cn(CCNC(C)=O)nn3)cc1-2 ?
2.5 µM

Could you share which CD value was measured for CCOc1cc2c(cc1OCC)-c1cccc(CC)c1N(C)C2 ?
5 µM

Please give the measured CD for this molecule: CCc1cccc2c1N(C)Cc1cc(OC)c(OC)cc1-2
2.5 µM

So what does the record say about CD for C#CCOc1cc2c(cc1OCC#C)-c1cccc(CC)c1N(C)C2 ?
5 µM

// CD lookup, key: C=Cc1cccc2c1N(C)Cc1cc3c(cc1-2)OCO3
inactive
